Listed below: GI50 values for each entry.
tested on: SN12C; experiment: NCI tumour cell line growth inhibition, 48 h
The source made the active and inactive calls. No stated cut-off is given here; in the data, active = GI50 up to about 1.1 µM and inactive = higher.
reported.metric: GI50

> print(dat)
                                   molecule  measured.on  reported.metric            obs.value
1  C/C(=N\Nc1ccccc1)C(CN(C)C)C(c1ccccc1)c1c(O)c2ccccc2oc1=O (stereo not given)        SN12C             GI50  > 100 µM (inactive)
2                   C1=Cc2cccc3occ(c23)C=C1        SN12C             GI50  > 100 µM (inactive)
3                 C/C=N\N1C(=O)c2ccccc2C1=O        SN12C             GI50  > 100 µM (inactive)
4  COc1ccc(C(=O)N2CCc3c([nH]c4ccccc34)C2C(=O)O)o1 (stereo not given)        SN12C             GI50   > 10 µM (inactive)
5                 O=[N+]([O-])c1ccc2nnnn2c1        SN12C             GI50   19.8 µM (inactive)

====

tested on: COLO 205; test: NCI tumour cell line growth inhibition, 48 h
Where a name gives a salt, the structure may show the parent alone. The source made the active and inactive calls. Cut-off read from the data, not from the text of the source: active = GI50 up to about 1.1 µM and inactive = higher.
Classes used: active, inactive

compound	measured.on	class.assignment
CCOc1c(OC)cc(CNNc2nccs2)cc1OC	COLO 205	inactive
COc1ccc2nc(/C(N)=C\C#N)ccc2c1	COLO 205	inactive
CN(C)CCNC(=O)Cn1ccc(=O)c2c([N+](=O)[O-])cccc21	COLO 205	inactive
C=CCC1C2CCC(O[Si](C(C)C)(C(C)C)C(C)C)(C(C(=O)OC)C2)C1O (configuration not stated)	COLO 205	inactive
CN(C)Cc1cc(/C(=C(\C#N)c2ccccc2)c2ccc(O)cc2)ccc1O	COLO 205	inactive
COc1cc2c(cc1OC)CC(=O)c1cc(OC)c(OC)cc1/C=C\2	COLO 205	inactive
CC1OC(n2cc(F)c(=O)[nH]c2=O)C=CC1O (configuration not stated)	COLO 205	inactive
C=C[Si](C)(C)COC(=O)/C(C#N)=C/C=C/c1ccccc1	COLO 205	inactive
O=C(/C=C/NC(=O)OCc1ccccc1)OCc1ccccc1	COLO 205	inactive
C=CCOC1=C(OC(C)=O)C(=O)OC1C1COC(C)(C)O1 (configuration not stated)	COLO 205	inactive
O=c1cc(NCC2CCCCC2)[nH]c(=O)[nH]1	COLO 205	inactive
NCCCCN [PUTRESCINE HYDROCHLORIDE]	COLO 205	inactive
S=P(C1CCCCC1)(C1CCCCC1)C(c1cccnc1)N1CCCC1 (configuration not stated)	COLO 205	inactive
COc1cc([N+](=O)[O-])c(S(=O)(=O)O)cc1N	COLO 205	inactive
CN(Cc1cnc2c(N)nc(N)nc2n1)c1ccc(Cl)cc1	COLO 205	inactive
Cc1ccc(S(=O)(=O)Nc2cccc(C)c2C)cc1	COLO 205	inactive
O=c1c(Cc2ccccc2)c(-c2ccccc2)[nH]n1C1=NCCN1	COLO 205	inactive
Cc1cn([C@H]2C[C@H](N=[N+]=[N-])[C@@H](CO)O2)c(=O)[nH]c1=O [ZIDOVUDINE]	COLO 205	inactive
COC(=O)C1=C(C(=O)OC)SC(=C2SCSC3=C2SC(C(=O)OC)=C(C(=O)OC)C32SC3=C(CCCC3)S2)S1	COLO 205	inactive
CCN(CC)C(=O)Cn1c2ccccc2[n+]2cc(N)ccc12	COLO 205	inactive
O=C(CN1CCCCC1)Nc1ccc2sc3ccccc3c(=O)c2n1	COLO 205	inactive
O=[N+]([O-])/C=C/c1cc2ccc3ccccc3c2[nH]1	COLO 205	inactive
O=C1c2c(ccc3c2CCC3)CC12Cc1cc3c(cc1C2)CCC3	COLO 205	inactive
Cc1cccc(-n2c(=S)[nH]c3c(sc(=O)n3-c3ccccc3C)c2=O)c1	COLO 205	inactive
CCOC(=O)C1(Cc2ccc(C)cc2)Cc2ccc(C)cc2C1=O (configuration not stated)	COLO 205	inactive
CN(C)CCCc1cccnc1	COLO 205	inactive
O=C(Nc1ccc([N+](=O)[O-])cc1[N+](=O)[O-])C(=O)C(C(=O)c1ccc(Cl)c(Cl)c1)C1OC(=O)c2ccccc21 (configuration not stated)	COLO 205	inactive
Cc1cc(C)c(C#N)c(SC(=S)NC(=O)c2ccc(Cl)cc2)n1	COLO 205	inactive
O=C1Nc2c(Cl)cccc2/C1=N/Nc1ccccc1[N+](=O)[O-]	COLO 205	inactive
O=C(O)CN1CCNCCN(CC(=O)O)CC1	COLO 205	inactive
CC(O)c1c2c(cc3c1CC1(C3)Cc3cc4c(c(C(C)O)c3C1)CCC4)CCC2 (configuration not stated)	COLO 205	inactive
Cc1ccc(/N=N/c2c(C)nn(C(=O)CC(=O)Nc3ccccc3)c2C)cc1C	COLO 205	inactive
CN/C(=N/C#N)NCc1ccccc1	COLO 205	inactive
N=C(N)NS(=O)(=O)c1ccc(NC(=O)c2ccc3nc4ccccc4c(Nc4ccc(S(=O)(=O)N=C(N)N)cc4)c3c2)cc1	COLO 205	inactive
O=S1(=O)OCCOS(=O)(=O)C1Cl	COLO 205	inactive
CC[C@@]1(O)C[C@H](OC2CC(N(C)C)C(O)C(C)O2)c2c(O)c3c(c(O)c2[C@H]1OC1CC(N(C)C)C(O)C(C)O1)C(=O)c1cccc(O)c1C3=O (some centres not stated)	COLO 205	active
Nc1ncnc2c1nnn2C1C=CC(CP(=O)(O)O)C1 (configuration not stated)	COLO 205	inactive

====

test system: SF-295; experiment: NCI tumour cell line growth inhibition, 48 h
Calls of active or inactive are those of the source. No stated cut-off is given here; in the data, active = GI50 up to about 1.1 µM and inactive = higher.
Classes used: active, inactive

> print(dat)
                                    compound  class.assignment
 1  C=C(C)CCC1CC=[N+]([O-])OC1C(C)(C)C (centres undefined)          inactive
 2               Cc1nc(N)nc(N)c1CCCCc1ccccc1          inactive
 3  O=C1Nc2cccc(C(F)(F)F)c2/C1=N/Nc1ccccc1[N+](=O)[O-]          inactive
 4  O=C(Cn1c(=O)oc2ccc(C(=O)c3ccccc3Cl)cc21)c1ccc([N+](=O)[O-])cc1          inactive
 5  O=C1c2c(ccc3c2CCC3)CC12Cc1cc3c(cc1C2)CCC3          inactive
 6  CCOC(=O)C1=C(C)C(C(=O)OC)/C(=C/c2cccc3cccnc23)C1=O (centres undefined)          inactive
 7  CC1=NOC2(C1)/C(=N/O)CCC/C2=N\O (centres undefined)          inactive
 8  COc1ccc(C2c3cc4c(c(OC)c3CC3OCC(=O)C32)OCO4)cc1OC (centres undefined)            active
 9                            Nn1nnc2ccccc21          inactive
10      C[N+]1=c2c3cccc4cccc(c(=O)n2CCC1)c43          inactive
11             CCOc1c(OC)cc(CNNc2nccs2)cc1OC          inactive
12            N#CCc1nc(-c2cc3ccccc3oc2=O)cs1          inactive
13  COC(=O)/C(=N/NC(C)(C)C)C(C(=O)OC)C(=O)C(=O)Nc1nc2ccc([N+](=O)[O-])cc2s1 (centres undefined)          inactive
14  COc1ccc(/C=C/C(=O)N[C@@H]2C(=O)N3[C@@H]2SC(C)(C)[C@@H]3C(=O)O)cc1          inactive
15  c1ccc2cc(-c3cc(-c4cc(-c5ccc6ccccc6c5)on4)no3)ccc2c1          inactive
16  Cc1cccc(C)c1NC(=O)/C(Cc1nc2ccc([N+](=O)[O-])cc2nc1O)=N\NC(N)=O          inactive
17  COC(=O)C1=C(C(=O)OC)SC(=C2SCSC3=C2SC(C(=O)OC)=C(C(=O)OC)C32SC3=C(CCCC3)S2)S1          inactive
18  N#CN1CC[C@@H]2CC3(CCC2C1)OCCO3 (some centres undefined)          inactive
19    CCN(CC)C(=O)Cn1c2ccccc2[n+]2cc(N)ccc12          inactive

====

Recorded measurements of GI50, one per entry
test system: EKVX; assay: NCI tumour cell line growth inhibition, 48 h
Calls of active or inactive are those of the source. Rule as the data show it: active = GI50 up to about 1.1 µM and inactive = higher.
reported.metric: GI50

> print(dat)
                                    compound            obs.value
 1      NS(=O)(=O)c1ccc(NC2(C(=O)O)CCCC2)cc1  > 100 µM (inactive)
 2   CCc1ccccc1NC(=O)c1cccc([N+](=O)[O-])c1O   30.8 µM (inactive)
 3  Nc1c(-c2nc3ccccc3[nH]2)sc(=S)n1-c1ccccc1   55.2 µM (inactive)
 4  O=C(Nc1ccc(Cl)cc1)c1cc2c(cc1Cl)SC(NNCCO)=NS2(=O)=O  > 100 µM (inactive)
 5  NC1C2(CCCCCC2)NC(=O)C12CCCCCC2 (stereo unspecified)  > 100 µM (inactive)
 6  CCC/C(=N\NC(=O)c1cc2ccccc2cc1O)C(CC)C(=O)CCC(=O)N(Cc1ccccc1)Cc1ccccc1 (stereo unspecified)     32 µM (inactive)
 7  Cc1ccc(/N=N/c2c(C)nn(C(=O)CC(=O)Nc3ccccc3)c2C)cc1C   26.2 µM (inactive)
 8                 O=S1(=O)OCCOS(=O)(=O)C1Cl  > 100 µM (inactive)
 9  COc1ccc(-c2c(C#N)c(-c3ccc(C)cc3)n(NS(=O)(=O)c3ccc(C)cc3)c(=O)c2C#N)cc1   53.5 µM (inactive)
10  Nc1ncnc2c1nnn2C1C=CC(CP(=O)(O)O)C1 (stereo unspecified)  > 100 µM (inactive)
11                 C/C=N\N1C(=O)c2ccccc2C1=O  > 100 µM (inactive)
